Origin of measurements: the supplement of paper PMC11865577

// values below are reported pull-down binding Z-score
Test system: TO-3-N3-2 (biotin conjugate)
PROCEDURE_SUMMARY: pull-down binding Z-score (relative to library population); higher = stronger binding
TEST_CONDITIONS: RNA library: Library-2
Give your answer as a number; write no unit.

The cases that follow already have their pull-down binding Z-score on record.
SEQUENCE_INPUT: GUCCGGGUGGGUUCCGGCA [hsa-mir-657]
ASSAY_TARGET: TO-3-N3-2 (biotin conjugate)
pull-down binding Z-score: 1.29
--
SEQUENCE_INPUT: GAGAGUGCUUUCUGAAUGCAAUGC [hsa-mir-501]
ASSAY_TARGET: TO-3-N3-2 (biotin conjugate)
pull-down binding Z-score: -0.161
--
SEQUENCE_INPUT: UCCAAGAACUUGGA
ASSAY_TARGET: TO-3-N3-2 (biotin conjugate)
pull-down binding Z-score: -0.88
--
SEQUENCE_INPUT: CCUCUGUCCUCUGUCCUCUACCUAUAGAGG [hsa-mir-641]
ASSAY_TARGET: TO-3-N3-2 (biotin conjugate)
pull-down binding Z-score: -0.229
--
SEQUENCE_INPUT: GAGACAUUUAAACUGUCUU
ASSAY_TARGET: TO-3-N3-2 (biotin conjugate)
pull-down binding Z-score: -0.286
--
SEQUENCE_INPUT: ACACACACCAGACUAUGGAAGCCAGUGU [hsa-mir-147a]
ASSAY_TARGET: TO-3-N3-2 (biotin conjugate)
pull-down binding Z-score: -0.471
--
SEQUENCE_INPUT: GUUGUCUUUGAUGAAAUUUCAAUGGCCAC [DMSMaPseq_invitro_SARS-CoV-2_Motif_310]
ASSAY_TARGET: TO-3-N3-2 (biotin conjugate)
pull-down binding Z-score: -0.29
--
SEQUENCE_INPUT: GAACACUAUUCCAUUGUGUUC [hsa-mir-588]
ASSAY_TARGET: TO-3-N3-2 (biotin conjugate)
pull-down binding Z-score: -0.701
--
SEQUENCE_INPUT: CUCUCAUUUUGUUAACUUAGACAACCUGAGAG
ASSAY_TARGET: TO-3-N3-2 (biotin conjugate)
pull-down binding Z-score: -0.35
--
SEQUENCE_INPUT: AUCUUAGGGAAUUUGUGUUUAAGAAUAUUGAUGGUUAUUUUAAAAUAUAUUCUAAGCACACGCCUAUUAAUUUAGUGCGUGAUCUCCCUCAGGGU
ASSAY_TARGET: TO-3-N3-2 (biotin conjugate)
pull-down binding Z-score: -0.113

Briefly, pull-down binding Z-score measured for AUGGAUAUGGGAACUGUGAUGUCCA [hsa-mir-4768] : 0.0446

Briefly, pull-down binding Z-score measured for CGCUGCUGGCUGCCUUCCAGCG [hsa-mir-4533] : -0.568

Briefly, pull-down binding Z-score measured for AGAGCACCUCCUAGAGAAUGUUGAACUAAAGGUGCCC [hsa-mir-4723] : 0.528

Briefly, pull-down binding Z-score measured for UGGGUUGUGUCAGUGUCAGACCUC [hsa-mir-146a] : -0.00346

Briefly, pull-down binding Z-score measured for GCUAAAGAUACUACUGAAGCCUUUGAAAAAAUGGUUUCACUACUUUCUGUUUUGC [SHAPE_invitro_SARS-CoV-2_Motif_217] : 0.0624

Briefly, pull-down binding Z-score measured for CAGACUUUGUGAAUGAGUUUUACGCAUAUUUGCGUAAACAUUUCUCAAUGAUGAUACUCUCUG : -0.222

Briefly, pull-down binding Z-score measured for GGUUCGUGUCUUUAGCUAUAGAUGCUUACC : 0.206

Briefly, pull-down binding Z-score measured for GACGGUGGGGGCCACGCUGACAGCCGC [hsa-mir-6804] : 0.752

Briefly, pull-down binding Z-score measured for CUGAUCCUAGUUUUCUGGGUAG [SHAPE_invivo_SARS-CoV-2_Motif_108] : -0.369

Briefly, pull-down binding Z-score measured for AGGUAGUGUGAUUACCCAACCUACU [hsa-mir-93] : -0.179

Briefly, pull-down binding Z-score measured for AAACGUGCUCAGUGUCUUUAUAACAGGAAAGCCGUAAAC [hsa-mir-1272] : 0.284

Briefly, pull-down binding Z-score measured for AAAUUGCAGACACUAGGACCAUGUCUUGGUUUUUGCAAUAAUG [hsa-mir-1248] : -0.133
